# Test Method Notes: logP by HPLC on reversed-phase column (EEC Directive 79/831 Annex V.A8)
# Type: physicochemical
# Protocol Conditions: HPLC, C18, 40° C., 0.1% aqueous formic acid and acetonitrile
Listed below: log P values for each entry.
Could you respond with only the numeric value?

INSERT INTO assay_data (molecule, number) VALUES
  ('CCN(C)C=Nc1cc(C)c(OCc2cccc(C)c2F)cc1C [Compound 77]', 2.16),
  ('CCN(C)C=Nc1cc(C)c(OCc2ccccc2C(F)(F)F)cc1C [Compound 34]', 2.14),
  ('Cc1cc(OCc2ccccc2OC(F)(F)F)c(C)cc1N=CN1CCCCC1 [Compound 111]', 2.33),
  ('CCN(C)C=Nc1cc(C)c(OCc2cc(C)ccc2C)cc1C [Compound 56]', 2.23),
  ('CCN(C)C=Nc1cc(C)c(OCc2cccc(OCC(F)(F)F)c2)cc1C [Compound 49]', 2.21),
  ('CCN(C)C=Nc1cc(C)c(OCc2ccc(OC(F)(F)F)cc2)cc1C [Compound 23]', 2.38),
  ('Cc1cc(OCc2cc(F)ccc2F)c(C)cc1N=CN1CCCCC1 [Compound 97]', 2.09),
  ('CCN(C)C=Nc1cc(C)c(OCc2ccc3nsnc3c2)cc1C [Compound 27]', 1.86),
  ('Cc1cc(OCc2ccc(Cl)c(C(F)(F)F)c2)c(C)cc1N=CN1CCCCC1 [Compound 129]', 2.51),
  ('CCN(C)C=Nc1cc(C)c(OCc2cc(C(F)(F)F)ccc2Cl)cc1C [Compound 20]', 2.44);

Query molecule follows.
What value of log P has been reported for the following molecule? Cc1cc(OCc2ccc3nsnc3c2)c(C)cc1N=CN1CCCCC1 [Compound 128]
1.99

All values here come from patent US7855309B2.
